Test system: PC-3 prostate
assay-text: NCI-60 one-dose screen, 48 h (100 = growth as untreated, 0 = no growth, -100 = all killed)
particulars: 10 µM
The panel holds about 83,000 compounds, 20% with a hit somewhere; the sample as a whole holds those more often.
endpoint: growth (%)
Numeric answer only, unit % assumed.

# get_value(readout= growth, system= PC-3 prostate) for COc1ccc(-c2nc(S(=O)(=O)c3ccc(C)cc3)c(S(=O)(=O)CC(=O)N(C)Cc3ccccc3)o2)cc1
63.7

And what about the compound CC(C)(C)Nc1nc2cc(Cl)c(Cl)cc2nc1S(C)(=O)=O ?
54

Next entry: O=C1NC(=NC23CC4CC(CC(C4)C2)C3)N/C1=C\c1ccc2ncccc2n1
-0.602

Next: COc1ccc(C(=O)/C=C/c2cc(C(F)(F)F)cc(C(F)(F)F)c2)cc1S(N)(=O)=O
-14.4

Can you check CN(C)c1ccc(/C=C/c2nc3ccccc3c(=O)n2CC(=O)Nc2ccc(Cl)cc2)cc1 next?
30.2

// same read-out, input: CCCS(=O)(=O)c1oc(-c2ccc(F)cc2)nc1S(=O)(=O)c1ccc(F)cc1
80.7

CC(=O)c1ccc(Nc2nc(SC(C)C)nc(-c3ccccc3)c2C#N)cc1 , same question.
71.9

// repeat for CN(C)CCNC(=O)OCCCCOc1cc(O)c2c(=O)cc(-c3ccccc3)oc2c1 and report
10.3

Also need CN1C(=O)N(C)C2SC(N/N=C/C=C/c3ccccc3)=NC21 (stereo not given) , thanks.
75.5

Let us now turn to C=C1CC[C@H](C(=C)C)[C@H]2C=C(C)C(=O)C3=C(C(=O)[C@@](C)(O)C3)[C@H]12
-73.2
